- Procedure Details: rat oral PK of D-tartrate salt
- Assay type: in vivo
- Recorded Conditions: plasma, po, 300 mg/kg
Quantity Measured: Cmax (ng/mL)
Numbers only, in ng/mL.

Ask: Query (molecule): CCN(c1cc(C#CCN2CCOCC2)cc(C(=O)NCc2c(C)cc(C)[nH]c2=O)c1C)[C@H]1CC[C@H](N(C)CCOC)CC1 ; field requested: Cmax
Reply: 2900

====

- Procedure Details: plasma protein binding, equilibrium dialysis, mouse
- Assay type: in vitro ADME
Quantity Measured: fraction unbound
Answers are plain numbers.

Ask: Query (compound): CCN(c1cc(C#CCN2CCOCC2)cc(C(=O)NCc2c(C)cc(C)[nH]c2=O)c1C)[C@H]1CC[C@H](N(C)CCOC)CC1 [EPZ011989] ; field requested: fraction unbound
Reply: 0.8

====

- Procedure Details: rat oral PK of D-tartrate salt
- Assay type: in vivo
- Recorded Conditions: plasma, po, 300 mg/kg
Quantity Measured: Tmax (h)
Give bare numbers, in h.

Ask: Query (compound): CCN(c1cc(C#CCN2CCOCC2)cc(C(=O)NCc2c(C)cc(C)[nH]c2=O)c1C)[C@H]1CC[C@H](N(C)CCOC)CC1 [EPZ011989] ; field requested: Tmax
Reply: 2.7

====

- Procedure Details: rat oral PK of D-tartrate salt
- Format: in vivo
- Recorded Conditions: plasma, po, 30 mg/kg
Quantity Measured: AUC(0-inf)
Respond with a number, then the unit of measure.

Ask: Query (compound): CCN(c1cc(C#CCN2CCOCC2)cc(C(=O)NCc2c(C)cc(C)[nH]c2=O)c1C)[C@H]1CC[C@H](N(C)CCOC)CC1 [EPZ011989] ; field requested: AUC(0-inf)
Reply: 970 ng·h/mL

====

- Procedure Details: rat oral PK of D-tartrate salt
- Type: in vivo
- Recorded Conditions: plasma, po, 100 mg/kg
Quantity Measured: Tmax (h)
Numbers only, in h.

Ask: Query (compound): CCN(c1cc(C#CCN2CCOCC2)cc(C(=O)NCc2c(C)cc(C)[nH]c2=O)c1C)[C@H]1CC[C@H](N(C)CCOC)CC1 [EPZ011989] ; field requested: Tmax
Reply: 2.7

====

- Procedure Details: rat oral PK of D-tartrate salt
- Type: in vivo
- Recorded Conditions: plasma, po, 100 mg/kg
Quantity Measured: AUC(0-inf)

Ask: Query (molecule): CCN(c1cc(C#CCN2CCOCC2)cc(C(=O)NCc2c(C)cc(C)[nH]c2=O)c1C)[C@H]1CC[C@H](N(C)CCOC)CC1 [EPZ011989] ; field requested: AUC(0-inf)
Reply: 5600 ng·h/mL

====

- Procedure Details: plasma protein binding, equilibrium dialysis, human
- Type: in vitro ADME
Quantity Measured: fraction unbound
One number for each entry.

Ask: Query (compound): CCN(c1cc(C#CCN2CCOCC2)cc(C(=O)NCc2c(C)cc(C)[nH]c2=O)c1C)[C@H]1CC[C@H](N(C)CCOC)CC1 ; field requested: fraction unbound
Reply: 0.97

====

- Procedure Details: rat oral PK of D-tartrate salt
- Format: in vivo
- Recorded Conditions: plasma, po, 100 mg/kg
Quantity Measured: Cmax (ng/mL)
Numbers only, in ng/mL.

Ask: Query (molecule): CCN(c1cc(C#CCN2CCOCC2)cc(C(=O)NCc2c(C)cc(C)[nH]c2=O)c1C)[C@H]1CC[C@H](N(C)CCOC)CC1 ; field requested: Cmax
Reply: 1600

====

- Procedure Details: plasma protein binding, equilibrium dialysis, rat
- Assay type: in vitro ADME
Quantity Measured: fraction unbound
Numbers only.

Ask: Query (molecule): CCN(c1cc(C#CCN2CCOCC2)cc(C(=O)NCc2c(C)cc(C)[nH]c2=O)c1C)[C@H]1CC[C@H](N(C)CCOC)CC1 ; field requested: fraction unbound
Reply: 0.91

====

- Procedure Details: rat oral PK of D-tartrate salt
- Format: in vivo
- Recorded Conditions: plasma, po, 300 mg/kg
Quantity Measured: AUC(0-inf) (ng·h/mL)
Answers are plain numbers, in ng·h/mL.

Ask: Query (molecule): CCN(c1cc(C#CCN2CCOCC2)cc(C(=O)NCc2c(C)cc(C)[nH]c2=O)c1C)[C@H]1CC[C@H](N(C)CCOC)CC1 ; field requested: AUC(0-inf)
Reply: 10000

====

- Procedure Details: rat oral PK of D-tartrate salt
- Type: in vivo
- Recorded Conditions: plasma, po, 30 mg/kg
Quantity Measured: Tmax (h)
One number for each entry, in h.

Ask: Query (compound): CCN(c1cc(C#CCN2CCOCC2)cc(C(=O)NCc2c(C)cc(C)[nH]c2=O)c1C)[C@H]1CC[C@H](N(C)CCOC)CC1 ; field requested: Tmax
Reply: 2

Entry source: paper PMC4434464
